Reference for the values: paper PMC11154717

Recorded pIC50 values for a group of compounds are listed next.
system: MCF-7 breast cancer cells; assay: XTT cell viability assay, MCF-7; assay type: cell-based, human; conditions: Homo sapiens, MCF7; XTT, 72 h
The read-out pIC50 is expressed as -log10 of concentration in moles per litre.

Solved entries (count: 3):
{"columns": ["compound", "measurement kind", "result"],
 "data": [
  ["Cc1ccc(-c2nnc(-c3ccccc3)c3c2C2(CCCCC2)N=C3c2ccc(C(C)(C)C)cc2)cc1 [SPP17]", "pIC50", 4.21],
  ["Brc1cccc(-c2nnc(-c3ccccc3)c3c2C2(CCCCC2)N=C3c2ccccc2)c1 [SPP13]", "pIC50", 4.18],
  ["CC(C)(C)c1ccc(C2=NC3(CCCCC3)c3c(-c4ccccc4)nnc(-c4ccccc4)c32)cc1 [SPP4]", "pIC50", 4.17]
]}

Ask | Recorded pIC50 for O=[N+]([O-])c1ccc(C2=NC3(CCCCC3)c3c(-c4ccccc4)nnc(-c4ccccc4)c32)cc1 [SPP9] , please?
Reply | 4.24

###

tested on: MCF-7 breast cancer cells; assay: XTT cell viability assay, MCF-7; type: cell-based, human; conditions: Homo sapiens, MCF7; XTT, 72 h
measurement kind: IC50 (µM)
Response body: numeric value in µM, unit text excluded.

For orientation, consider the following solved cases.
{"columns": ["molecule", "unit text", "IC50"],
 "data": [
  ["CC(C)(C)c1ccc(C2=NC3(CCCCC3)c3c(-c4cccc(Br)c4)nnc(-c4ccccc4)c32)cc1", "µM", 38.4],
  ["Fc1ccc(-c2nnc(-c3ccccc3)c3c2C2(CCCCC2)N=C3c2ccccc2)cc1", "µM", 12.6],
  ["C#Cc1cccc(Nc2ncnc3cc(OCCOC)c(OCCOC)cc23)c1 [erlotinib, reference compound]", "µM", 19.4],
  ["Cc1cccc(C2=NC3(CCCCC3)c3c(-c4ccc(F)cc4)nnc(-c4ccccc4)c32)c1", "µM", 58.3]
]}

Ask | GET /values?readout=IC50&item= COc1ccccc1C1=NC2(CCCCC2)c2c(-c3ccccc3)nnc(-c3ccccc3)c21
Reply | 40.9

Ask | Any idea what IC50 was measured for c1ccc(C2=NC3(CCCCC3)c3c(-c4ccccc4)nnc(-c4ccccc4)c32)cc1 ?
Reply | 21.3
